test readout: melting point
# do not omit the unit; it follows the number

INSERT INTO measurements (compound, measured_value) VALUES
  ('N#Cc1ccccc1S(=O)(=O)Cl [2-cyanobenzenesulfonyl chloride]', '67 °C'),
  ('CC(C)CCBr [1-bromo-3-methylbutane]', '-112 °C');

Q: Item COC(=O)c1ccc(N)cc1 [methyl 4-aminobenzoate] has what recorded melting point?
A: 112 °C

Q: Item OB(O)c1cccc2c1oc1ccccc12 [dibenzofuran-4-boronic acid] has what recorded melting point?
A: 289 °C

Q: Item CC=C(/C)C [2-Methylbut-2-ene] has what recorded melting point?
A: -134 °C

Q: Item CCCc1ccc(C(=O)Oc2ccc(C#N)cc2)cc1 [4-cyanophenyl 4-n-propylbenzoate] has what recorded melting point?
A: 102 °C

Q: Item CC(=O)Nc1ccc(O)cc1 [acetaminophen] has what recorded melting point?
A: 170 °C

Q: Item C=Cc1cccc(B(O)O)c1 [3-vinylbenzeneboronic acid] has what recorded melting point?
A: 128 °C

Q: Item NCC(CC(=O)O)c1ccc(Cl)cc1 (stereo not given) [baclofen] has what recorded melting point?
A: 208 °C

Q: Item CC(=O)C(C)(C)C [3,3-Dimethylbutan-2-one] has what recorded melting point?
A: -52.5 °C

Q: Item C[Si]1(C)O[Si](C)(C)O[Si](C)(C)O1 [hexamethylcyclotrisiloxane] has what recorded melting point?
A: 65 °C

Q: Item O=C[C@@H](O)[C@H](O)[C@@H](O)[C@@H](O)CO [L-Glucose] has what recorded melting point?
A: 150 °C
